Overview of recorded inhibition at 0.1 µg/mL for various compounds
system: Leptosphaeria nodorum (LEPTNO); assay: Isolated metal-hydrazone complexes versus parent hydrazones, in vitro, Leptosphaeria nodorum (Example 31, Table 7); assay type: cell-based; details: Parastagonospora nodorum; 0.1 μg/mL; copper-minus medium; 72 h
Property Label: inhibition at 0.1 µg/mL (%)

INSERT INTO assay_data (compound_structure, property_label, value_reported) VALUES
  ('O=C(N/N=C/c1cc(Cl)ccc1O)c1ccc(Cl)cc1', 'inhibition at 0.1 µg/mL', 28.7),
  ('O=C(N/N=C/c1cc(Cl)cc(Cl)c1O)c1ccccc1O', 'inhibition at 0.1 µg/mL', 32.4),
  ('O=C(N/N=C/c1cc(Cl)cc(Br)c1O)c1ccccc1O', 'inhibition at 0.1 µg/mL', 21.7),
  ('O=C(N/N=C/c1cc(C(F)(F)F)cc(C(F)(F)F)c1O)c1ccc(Cl)cc1', 'inhibition at 0.1 µg/mL', 39.9),
  ('COc1cccc(/C(C)=N/NC(=O)c2ccc(C)cc2)c1O', 'inhibition at 0.1 µg/mL', 22.9),
  ('C/C(=N\NC(=O)c1ccc(C)cc1)c1cc(Cl)cc(Cl)c1O', 'inhibition at 0.1 µg/mL', 19.9),
  ('O=C(N/N=C/c1cccc(Cl)c1O)c1ccc(Cl)cc1', 'inhibition at 0.1 µg/mL', 29.9),
  ('C/C(=N\NC(=O)c1cccc(C)c1)c1cc(Cl)cc(Cl)c1O', 'inhibition at 0.1 µg/mL', 16.2),
  ('C/C(=N\NC(=O)c1ccccc1C)c1cc(Cl)cc(Cl)c1O', 'inhibition at 0.1 µg/mL', 27.2),
  ('O=C(N/N=C/c1cc(Br)cc(F)c1O)c1ccc(C(F)(F)F)cc1', 'inhibition at 0.1 µg/mL', 40.4),
  ('O=C(N/N=C/c1c(Cl)ccc(Cl)c1O)c1ccc(Cl)cc1', 'inhibition at 0.1 µg/mL', 23.1),
  ('O=C(N/N=C/c1cc(Cl)cc(C(F)(F)F)c1O)c1ccc(Cl)cc1', 'inhibition at 0.1 µg/mL', 43.9),
  ('O=C(N/N=C/c1ccc(Cl)cc1O)c1ccccc1', 'inhibition at 0.1 µg/mL', 8.4),
  ('O=C(N/N=C/c1cc(Cl)cc(Cl)c1O)c1ccccc1[N+](=O)[O-]', 'inhibition at 0.1 µg/mL', 10.7),
  ('O=C(N/N=C/c1cc(Cl)cc(Cl)c1O)c1ccc(OC(F)(F)F)cc1', 'inhibition at 0.1 µg/mL', 24.7),
  ('O=C(N/N=C/c1cc(Cl)cc(Br)c1O)c1ccccc1', 'inhibition at 0.1 µg/mL', 30.9),
  ('O=C(N/N=C/c1cc(C(F)(F)F)ccc1O)c1ccc(Cl)cc1', 'inhibition at 0.1 µg/mL', 23.8),
  ('O=C(N/N=C/c1cc(Cl)cc(Cl)c1O)c1ccc(Cl)cc1', 'inhibition at 0.1 µg/mL', 7.1),
  ('COc1cccc(/C(C)=N/NC(=O)c2ccc(Cl)cc2)c1O', 'inhibition at 0.1 µg/mL', 27.1),
  ('O=C(N/N=C/c1ccc(Cl)cc1O)c1ccc(Cl)cc1', 'inhibition at 0.1 µg/mL', 22.8),
  ('O=C(N/N=C/c1cc(Cl)cc(Cl)c1O)c1cccc(Cl)c1', 'inhibition at 0.1 µg/mL', 29.4),
  ('O=C(N/N=C/c1c(O)cccc1Cl)c1ccccc1', 'inhibition at 0.1 µg/mL', 4.7);

* * *

system: Leptosphaeria nodorum (LEPTNO); assay: In vitro fungitoxicity of hydrazones with and without copper towards Leptosphaeria nodorum (Example 26); format: cell-based; settings: Parastagonospora nodorum, 72 h, compound 0.05 μg/mL, copper-minus medium, 72 h at 25° C.; read-out: LEPTNO % Inhn. Minus Copper Observed
Property Label: inhibition of growth at 0.05 µg/mL (%)

INSERT INTO measurements (compound, property_label, value_reported) VALUES
  ('O=C(N/N=C/c1cc(Cl)cc(Br)c1O)c1ccc(C(F)(F)F)cc1 [Example 164]', 'inhibition of growth at 0.05 µg/mL', 10.8),
  ('O=C(N/N=C/c1cc(Cl)ccc1O)c1ccccc1O [Example 177]', 'inhibition of growth at 0.05 µg/mL', 12.5),
  ('O=C(Cc1ccc(Cl)cc1)N/N=C/c1cc(Cl)cc(Cl)c1O [Example 123]', 'inhibition of growth at 0.05 µg/mL', 7.5),
  ('Cc1ccccc1C(=O)N/N=C/c1cc(Cl)cc(Br)c1O [Example 162]', 'inhibition of growth at 0.05 µg/mL', 0),
  ('O=C(N/N=C/c1cc(Br)cc(Br)c1O)c1ccccc1Cl [Example 112]', 'inhibition of growth at 0.05 µg/mL', 8.1),
  ('COc1cccc(C(=O)N/N=C/c2cc(Br)ccc2O)c1 [Example 185]', 'inhibition of growth at 0.05 µg/mL', 0),
  ('O=C(N/N=C/c1ccc(Cl)cc1O)c1ccccc1 [Example 233]', 'inhibition of growth at 0.05 µg/mL', 5.6);

* * *

Overview of recorded inhibition of growth at 0.05 µg/mL for various compounds
tested on: Leptosphaeria nodorum (LEPTNO); assay: In vitro fungitoxicity of hydrazones with and without copper towards Leptosphaeria nodorum (Example 26); type: cell-based; settings: Parastagonospora nodorum, 72 h, copper-minus medium; test compound Concn. 0.05 μg/mL; 72 h at 25° C.; read-out: LEPTNO % Inhn. Minus Copper Observed
Property Label: inhibition of growth at 0.05 µg/mL (%)

INSERT INTO measurements (compound_structure, value_reported) VALUES
  ('O=C(N/N=C/c1cc(Cl)cc(Br)c1O)c1ccc(F)cc1', 2.9),
  ('Cc1cccc(C(=O)N/N=C/c2cccc(Cl)c2O)c1', 0.8),
  ('COc1ccc(C(=O)N/N=C(\C)c2cc(Cl)ccc2O)cc1', 0),
  ('O=C(N/N=C/c1cccc(C(F)(F)F)c1O)c1ccc(Cl)cc1', 16.3),
  ('N#Cc1ccc(C(=O)N/N=C/c2cc(Cl)cc(Cl)c2O)cc1', 2.4),
  ('C/C(=N\NC(=O)c1ccc(C)cc1)c1cc(Br)cc(Br)c1O', 0),
  ('COc1ccc(/C(C)=N/NC(=O)c2cccc(C)c2)c(O)c1OC', 0),
  ('O=C(N/N=C/c1cc(C(F)(F)F)ccc1O)c1ccccc1C(F)(F)F', 0),
  ('C/C(=N\NC(=O)c1ccc(C)cc1O)c1cc(Cl)cc(Cl)c1O', 25),
  ('COc1ccc(C(=O)N/N=C(\C)c2ccc(OC)cc2O)cc1', 0),
  ('C/C(=N\NC(=O)c1ccccc1O)c1cc(Cl)ccc1O', 0),
  ('O=C(N/N=C/c1cccc(C(F)(F)F)c1O)c1ccc([N+](=O)[O-])cc1', 11.3),
  ('COc1cccc(/C(C)=N/NC(=O)c2ccc(C(F)(F)F)cc2)c1O', 2.7),
  ('O=C(N/N=C/c1cccc(C(F)(F)F)c1O)c1ccccc1C(F)(F)F', 0),
  ('C/C(=N\NC(=O)c1ccccc1C)c1cc(F)cc(F)c1O', 2.4),
  ('C/C(=N\NC(=O)c1ccc(Br)cc1)c1ccc(Cl)cc1O', 0),
  ('C/C(=N\NC(=O)c1ccccc1O)c1cc(F)cc(F)c1O', 13.2),
  ('C/C(=N\NC(=O)c1ccccc1Br)c1cccc(Cl)c1O', 4.2),
  ('Cc1ccc(C(=O)N/N=C/c2cc(Cl)cc(Br)c2O)cc1', 18.9),
  ('N#Cc1cc(Br)c(O)c(/C=N/NC(=O)c2ccccc2)c1', 0),
  ('O=C(N/N=C/c1cccc(Cl)c1O)c1ccc([N+](=O)[O-])cc1', 16.6),
  ('Cc1cccc(C(=O)N/N=C/c2cc(C(F)(F)F)cc(C(F)(F)F)c2O)c1', 2),
  ('C/C(=N\NC(=O)c1ccc(Cl)cc1)c1cc(Cl)ccc1O', 6.2),
  ('C/C(=N\NC(=O)c1ccccc1)c1cc(Cl)ccc1O', 1.3),
  ('Cc1ccc(C(=O)N/N=C/c2cc(Cl)cc(C(F)(F)F)c2O)cc1', 29.9),
  ('Cc1ccc(C(=O)N/N=C/c2cccc(C(F)(F)F)c2O)cc1', 31.5),
  ('C/C(=N\NC(=O)c1ccccc1)c1cc(C)ccc1O', 3.3),
  ('C/C(=N\NC(=O)c1ccc(Cl)cc1)c1cc(F)cc(F)c1O', 7.2),
  ('C/C(=N\NC(=O)c1cccc(C)c1)c1cc(F)cc(F)c1O', 2.8),
  ('COc1ccc(C(=O)N/N=C(\C)c2cc(Cl)cc(Cl)c2O)c(O)c1', 6.2),
  ('O=C(N/N=C/c1cc(Cl)cc(Br)c1O)c1cccc(F)c1', 14.6),
  ('COc1ccc(C(=O)N/N=C(\C)c2cc(F)cc(F)c2O)cc1', 0),
  ('O=C(N/N=C/c1ccc(Cl)cc1O)c1ccccc1C(F)(F)F', 0),
  ('C/C(=N\NC(=O)c1ccccc1)c1cc(F)cc(F)c1O', 2.5),
  ('O=C(N/N=C/c1c(C(F)(F)F)ccc(Cl)c1O)c1ccc(Cl)cc1', 12.9),
  ('COc1cc(O)c(/C(C)=N/NC(=O)c2cccc(C)c2)c(OC)c1', 6.3),
  ('COc1ccc(O)c(C(=O)N/N=C/c2cc(Cl)cc(Cl)c2O)c1', 11.2);
